The origin of these recorded values is paper PMC11320734.

System: P-gp
Experiment: Brain penetration study with/without P-gp inhibitor tariquidar
Type: in vivo, male C57/BL6 mice
Conditions: male, C57/BL6, mouse, plasma, iv, with tariquidar 5 mg kg^–1 i.v. bolus, 30 min prior to RNB-61; RNB-61 1 mg kg^–1 i.v. + tariquidar 5 mg kg^–1 i.v.; read-out: plasma Tmax
Measured quantity: Tmax (min)
State just the number; it will be interpreted in min.

Entry "Cn1c(C(C)(C)C)cc(=NC(=O)c2cc(C(F)(F)F)ccc2OCC(C)(C)O)n1CC1CCC1" ; Tmax = 4.98

* * *

Molecular target: canine CB2R (Canis lupus familiaris, UniProt E2RKA3)
Sequence (E2RKA3 1-360): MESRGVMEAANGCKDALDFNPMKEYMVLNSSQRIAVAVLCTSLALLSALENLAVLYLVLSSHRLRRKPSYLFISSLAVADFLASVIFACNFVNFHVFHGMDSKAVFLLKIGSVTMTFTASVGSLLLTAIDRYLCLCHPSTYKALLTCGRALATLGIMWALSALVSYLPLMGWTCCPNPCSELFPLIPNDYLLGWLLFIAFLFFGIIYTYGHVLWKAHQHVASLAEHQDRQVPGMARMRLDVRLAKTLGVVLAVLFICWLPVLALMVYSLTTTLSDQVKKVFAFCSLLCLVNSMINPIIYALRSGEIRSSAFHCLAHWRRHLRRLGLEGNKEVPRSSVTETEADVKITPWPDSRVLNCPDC
Assay: cAMP assay in CHO cells
Conditions: mean ± SD; read-out: EC50 cAMP assay, dog CB2R
Measured quantity: EC50 (nM)
State just the number; it will be interpreted in nM.

Entry "Cn1c(C(C)(C)C)cc(=NC(=O)c2cc(C(F)(F)F)ccc2OCC(C)(C)O)n1CC1CCC1" ; EC50 = 1.86
